Target: DYRK1A (Homo sapiens, UniProt Q13627)
Construct: kinase domain of DYRK1A (126–490) was cloned into pET24a with C-terminal His-tag; His-tag (C); made in house; host or cells: E. coli BL21 (DE3) RIL
Assay: Cook activity assay (ATP regenerative NADH consuming DYRK1A activity assay)
Format: biochemical
Details: Table 2, Biochemistry; unit inferred
assayReadout: pKi
In plain terms, pKi is the concentration in mol/L turned into minus its base-10 logarithm.

Looking for the measured pKi of O=c1ccc2cnc3ccc(-c4cn[nH]c4)cc3c2n1-c1ccc(F)cc1C(F)(F)F [AC27] , can you help?
6.77

* * *

Molecular target: DYRK1A (Homo sapiens, UniProt Q13627)
Construct: kinase domain of DYRK1A (126–490) was cloned into pET24a with C-terminal His-tag; His-tag (C); made in house; host or cells: E. coli BL21 (DE3) RIL
Assay: Cook activity assay (ATP regenerative NADH consuming DYRK1A activity assay)
Format: biochemical
Conditions: Cook assay, phosphorylation of substrate peptide
pKi: −log10 of the molar value.
pKi by entry:

[[record]]
compound = "O=c1ccc2cnc3ccc(-c4cn[nH]c4)cc3c2n1-c1ccc(F)cc1C(F)(F)F [AC27]"
valuemeasured = "> 6.70"


Consider the compound shown here: NS(=O)(=O)c1ccc(-c2cnc3[nH]cc(-c4cccnc4)c3c2)cc1 [AC12] What is its recorded pKi?
> 6.70
